- System: Streptococcus sp. 'group A'
- TEST_SUMMARY: Streptococcus pyogenes SK(-)GAS viability under kanamycin – luminescence, BacTiterGlo, confirmation, counter-screen for streptokinase expression inhibitor project, dose response (AID 1900)
- Type: functional, organism-based
Calls of active or inactive are those of the source.

{"columns": ["COMPOUND", "EXPERIMENTAL_TARGET", "EC50"],
 "data": [
  ["CCCOc1ccc(/C=C/c2c([N+](=O)[O-])c(=O)n(C)c(=O)n2C)cc1", "Streptococcus sp. 'group A'", "26.9 µM (active)"],
  ["COC(=O)c1c(NC(=O)c2ccccc2)sc(C(=O)c2ccccc2)c1C", "Streptococcus sp. 'group A'", "6.12 µM (active)"],
  ["Cc1cc(C)n(C(=O)/C(C#N)=N/Nc2cc(Cl)cc(Cl)c2)n1", "Streptococcus sp. 'group A'", "2.34 µM (active)"],
  ["CC(=O)C1=C(c2ccc(Br)cc2)C(=O)c2ccccc2C1=O", "Streptococcus sp. 'group A'", "1 µM (active)"],
  ["FC(F)(F)c1cc(Nc2ccccc2)nc(-c2ccccn2)n1", "Streptococcus sp. 'group A'", "9.52 µM (active)"],
  ["COc1ccc(CN(C)S(=O)(=O)c2nnc(NC(=O)c3ccccc3Br)s2)cc1", "Streptococcus sp. 'group A'", "6.23 µM (active)"],
  ["COc1ccc(C2CC(=O)c3cnc(N4CCN(Cc5ccccc5)CC4)nc3C2)cc1 (stereo not given)", "Streptococcus sp. 'group A'", "14.9 µM (active)"],
  ["O=C(NNC(=S)NC(=O)c1cccc([N+](=O)[O-])c1)c1ccc(Br)cc1", "Streptococcus sp. 'group A'", "1.14 µM (active)"],
  ["Cc1ccc(N2C(=O)/C(=C\\Nc3ccccc3-c3nnc(S)nc3O)c3ccccc3C2=O)cc1C", "Streptococcus sp. 'group A'", "0.798 µM (active)"],
  ["O=C(NC(=S)N1CCN(c2nc(-c3ccccc3)cs2)CC1)c1cccnc1", "Streptococcus sp. 'group A'", "5.55 µM (active)"]
]}

---

The entries below are paired with their reported AC50.
- TEST_SUMMARY: blockers of HIV-1 envelope-mediated cell-cell fusion – cherry-pick, dose response (AID 652057)
- Type: functional, cell-based
Activity calls are given as the source filed them.

{"columns": ["COMPOUND", "AC50"],
 "data": [
  ["O=C(Nc1ccc(Cl)cc1)Nc1cccc(C(=O)O)c1", "2.22 µM (active)"],
  ["CCOc1ccccc1N(C(=O)CNC(=O)c1ccco1)C(C(=O)NC1CCCC1)c1cccnc1 (centres undefined)", "7.37 µM (active)"],
  ["S=C(NCc1ccc(Cl)cc1)NC12CC3CC(CC(C3)C1)C2", "4.88 µM (active)"],
  ["CC(NC(=O)c1ccccc1NC(=O)CN1CCc2ccccc2C1)c1ccccc1 (centres undefined)", "9.12 µM (active)"]
]}

---

- EXPERIMENTAL_TARGET: Tumor necrosis factor (Homo sapiens)
- Sequence (P01375 whole entry): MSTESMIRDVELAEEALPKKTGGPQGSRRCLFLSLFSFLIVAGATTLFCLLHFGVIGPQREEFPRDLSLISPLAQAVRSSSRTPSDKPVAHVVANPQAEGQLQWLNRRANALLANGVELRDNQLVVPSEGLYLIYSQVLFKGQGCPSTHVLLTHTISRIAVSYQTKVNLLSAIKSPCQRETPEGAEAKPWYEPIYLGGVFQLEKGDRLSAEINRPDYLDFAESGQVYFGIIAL
- TEST_SUMMARY: analog potency on TNFa NF-kB signaling – cell-based, revised, SAR follow-up (AID 2337)
- Assay type: functional
Calls of active or inactive are those of the source.
Labels: active, inactive

{"columns": ["QUERY_SMILES", "EXPERIMENTAL_TARGET", "ANSWER_LABEL"],
 "data": [
  ["CCOC(=O)c1c(NC(=O)c2cccs2)sc2c1CC(C)(C)OC2", "Tumor necrosis factor (Homo sapiens)", "inactive"],
  ["Oc1nc(/C=C/c2ccccc2C(F)(F)F)cc(C(F)(F)F)n1", "Tumor necrosis factor (Homo sapiens)", "active"],
  ["N#Cc1ccc(N2CCN(S(=O)(=O)c3ccc4c(c3)CCN4C(=O)C3CC3)CC2)cc1", "Tumor necrosis factor (Homo sapiens)", "active"],
  ["O=C(O)c1c(NC(=O)N2CCOCC2)sc2c1CCCC2", "Tumor necrosis factor (Homo sapiens)", "inactive"]
]}

---

The entries below are paired with their reported EC50.
- Test system: BJ
- TEST_SUMMARY: cells
- Type: functional, cell-based
- CONDITIONS: Homo sapiens
Activity calls are given as the source filed them.

{"columns": ["QUERY_SMILES", "EC50"],
 "data": [
  ["N#CCc1ccc(NC(=O)/C=C/c2ccc([N+](=O)[O-])o2)cc1", "3.87 µM (inconclusive)"],
  ["Cc1nc(N2CCCCC2)sc1C(=O)c1ccc(Cl)c([N+](=O)[O-])c1", "> 150 µM (not active)"],
  ["O=C(N/N=C/c1ccc([N+](=O)[O-])o1)c1cc(-c2ccc(-c3ccccc3)cc2)nc2ccccc12", "4.52 µM (inconclusive)"],
  ["CCN(CC)c1ccc2nc3ccccc3[n+](CC)c2c1", "23.6 µM (active)"]
]}

---

The entries below are paired with their reported EC50.
- TEST_SUMMARY: Trypanosoma cruzi growth suppression in host cells – NIH3T3 host cells, beta-gal luminescence, confirmation (AID 2044);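 also: intracellular parasites grown in NIH/3T3 mouse fibroblasts as host cells; luminescent beta-galactosidase reporter signal from transgenic T. cruzi replicating inside host cells; inhibitors lower the luminescence signal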
- Type: functional, cell-based
Activity calls are given as the source filed them.
ASSAY_METRIC: EC50

{"columns": ["MOLECULE", "ASSAY_METRIC", "DATA_VALUE"],
 "data": [
  ["OCC1(CCCc2ccccc2)CCN(Cc2cnc(N3CCOCC3)s2)CC1", "EC50", "1200 nM (active)"],
  ["CN(C)CCCNc1cc(C(C)(C)C)nc2c(-c3ccccc3)cnn12", "EC50", "574 nM (active)"],
  ["COc1ccccc1CN1CC(C(=O)NCCN(C)CCc2ccccc2)CCC1=O (centres undefined)", "EC50", "< 100 nM (active)"],
  ["S=C(NCc1ccc(Cl)cc1)NC12CC3CC(CC(C3)C1)C2", "EC50", "3410 nM (active)"],
  ["O=C(c1c[nH]c(C(=O)N2CCN(c3ccccc3F)CC2)c1)c1cccc(Cl)c1Cl", "EC50", "2690 nM (active)"],
  ["CCC(=O)Nc1nc2ccc([N+](=O)[O-])cc2s1", "EC50", "241 nM (active)"],
  ["CCCCCCOc1ccc(CN2CCN(C)CC2)cc1", "EC50", "< 100 nM (active)"],
  ["O=C(Nc1nc2c(F)cc(F)cc2s1)C1CC1", "EC50", "305 nM (active)"],
  ["O=C(Nc1ccccc1)Nc1cc(OCC(F)(F)F)cc(OCC(F)(F)F)c1", "EC50", "719 nM (active)"]
]}

---

- EXPERIMENTAL_TARGET: Corticotropin-releasing factor receptor 2/Corticotropin-releasing factor-binding protein (Homo sapiens, UniProt P24387+Q13324)
- Sequence (Q13324 whole entry): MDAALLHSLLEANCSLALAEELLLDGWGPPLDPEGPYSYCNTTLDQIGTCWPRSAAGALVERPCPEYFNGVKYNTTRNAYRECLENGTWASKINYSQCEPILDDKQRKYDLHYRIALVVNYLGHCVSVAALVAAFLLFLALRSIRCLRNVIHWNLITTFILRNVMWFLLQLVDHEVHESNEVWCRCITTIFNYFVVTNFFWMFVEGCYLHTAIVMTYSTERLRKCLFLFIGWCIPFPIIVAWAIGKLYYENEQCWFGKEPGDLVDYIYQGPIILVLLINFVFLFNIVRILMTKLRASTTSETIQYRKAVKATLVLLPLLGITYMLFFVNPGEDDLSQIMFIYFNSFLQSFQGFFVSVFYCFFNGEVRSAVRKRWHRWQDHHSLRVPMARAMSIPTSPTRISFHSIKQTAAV
- Sequence (P24387 whole entry): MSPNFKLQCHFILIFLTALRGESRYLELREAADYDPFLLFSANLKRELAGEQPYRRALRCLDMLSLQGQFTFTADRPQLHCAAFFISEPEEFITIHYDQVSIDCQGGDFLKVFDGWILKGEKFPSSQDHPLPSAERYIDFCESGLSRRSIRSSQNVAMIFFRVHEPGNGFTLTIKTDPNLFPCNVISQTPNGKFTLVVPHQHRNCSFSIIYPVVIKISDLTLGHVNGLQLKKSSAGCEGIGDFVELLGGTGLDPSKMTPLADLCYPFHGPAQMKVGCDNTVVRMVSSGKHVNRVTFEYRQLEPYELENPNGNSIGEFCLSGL
- TEST_SUMMARY: activators of CRF receptor 2 with binding protein – uHTS hits, confirmation (AID 602473)
- Assay type: functional
- CONDITIONS: read-out: EC50_Mean
Active and inactive are the calls of the source.
Labels: True (active), False (inactive)

{"columns": ["COMPOUND", "ANSWER_LABEL"],
 "data": [
  ["ON1C(c2ccc(Cl)cc2Cl)N(O)[C@H]2CCCC[C@H]21 (stereo partly specified)", "False"],
  ["COC(C(=O)Nc1ccc(F)cc1)c1ccccc1 (stereo unspecified)", "False"],
  ["Cc1cc(C)c(S(=O)(=O)n2ccc3ccccc32)c(C)c1", "False"],
  ["CCCN1Cc2cccc(C(=O)NCc3cccs3)c2C1=O", "False"],
  ["O=C(c1ccc(NS(=O)(=O)c2cccc([N+](=O)[O-])c2)cc1)N1CCCCCC1", "False"],
  ["CCOC(=O)c1c(-c2ccccc2)oc2ccc(OC(C)C(=O)O)cc12 (stereo unspecified)", "False"],
  ["N#C/C(=C(/O)COC(=O)COc1cccc(Br)c1)c1nc2ccccc2[nH]1", "False"],
  ["CC(=O)Nc1ccc(OCC[n+]2cccc(C(N)=O)c2)cc1", "False"],
  ["CCOc1nc(C)ccc1-c1noc(-c2ccccn2)n1", "False"],
  ["CCC/C(=N\\NC(=O)C1CC1)c1ccccc1", "False"],
  ["Cc1ccc(CNC(=O)c2cccc3c2C(=O)c2ccc(N4CCC(C)CC4)cc2S3(=O)=O)cc1", "True"]
]}

---

- EXPERIMENTAL_TARGET: Cytochrome P450 2C19 (Homo sapiens)
- Sequence (P33261 whole entry): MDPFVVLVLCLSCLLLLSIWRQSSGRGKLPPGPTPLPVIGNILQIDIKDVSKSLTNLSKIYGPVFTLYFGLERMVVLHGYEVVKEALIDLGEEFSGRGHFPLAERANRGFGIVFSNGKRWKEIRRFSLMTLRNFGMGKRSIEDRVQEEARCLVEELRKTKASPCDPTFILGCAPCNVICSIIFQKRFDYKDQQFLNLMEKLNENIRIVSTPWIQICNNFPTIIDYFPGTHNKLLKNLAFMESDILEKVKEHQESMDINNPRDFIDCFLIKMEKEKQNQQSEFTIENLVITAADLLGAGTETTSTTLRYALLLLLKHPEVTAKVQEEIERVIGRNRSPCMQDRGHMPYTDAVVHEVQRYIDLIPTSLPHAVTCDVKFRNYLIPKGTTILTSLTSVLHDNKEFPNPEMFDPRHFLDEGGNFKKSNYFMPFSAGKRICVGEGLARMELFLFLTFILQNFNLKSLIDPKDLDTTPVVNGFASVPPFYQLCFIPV
- TEST_SUMMARY: Cytochrome panel assay with activity outcomes. Panel member name: p450-cyp2c19 Compounds with AC50 equal or less than 10 uM are considered active
- Type: functional
ASSAY_METRIC: AC50

{"columns": ["COMPOUND", "EXPERIMENTAL_TARGET", "ASSAY_METRIC", "DATA_VALUE"],
 "data": [
  ["Oc1c[n+](CCCC[n+]2cc(O)on2)no1", "Cytochrome P450 2C19 (Homo sapiens)", "AC50", "inconclusive"],
  ["Cc1ccc(C(=O)NCC2CCCO2)cc1N1CCCC1=O (stereo not drawn)", "Cytochrome P450 2C19 (Homo sapiens)", "AC50", "inconclusive"],
  ["Oc1cc(-c2ccccc2)nc2nc(Cl)ccc12", "Cytochrome P450 2C19 (Homo sapiens)", "AC50", "inconclusive"]
]}
